src = patent US20180009892A1

assayedTarget: T1, ROR1 extracellular domain Fc fusion:Fc heterodimer, monomer (human)
T1 construct: Heterodimer of one ROR1 ECD-Fc chain and one Fc chain; also called ROR1 monomer; hROR1 monomeric ECD-Fc fusion protein; not shown: Fc part; Fc alone
T1 sequence (Q01973 30-406, one chain of several): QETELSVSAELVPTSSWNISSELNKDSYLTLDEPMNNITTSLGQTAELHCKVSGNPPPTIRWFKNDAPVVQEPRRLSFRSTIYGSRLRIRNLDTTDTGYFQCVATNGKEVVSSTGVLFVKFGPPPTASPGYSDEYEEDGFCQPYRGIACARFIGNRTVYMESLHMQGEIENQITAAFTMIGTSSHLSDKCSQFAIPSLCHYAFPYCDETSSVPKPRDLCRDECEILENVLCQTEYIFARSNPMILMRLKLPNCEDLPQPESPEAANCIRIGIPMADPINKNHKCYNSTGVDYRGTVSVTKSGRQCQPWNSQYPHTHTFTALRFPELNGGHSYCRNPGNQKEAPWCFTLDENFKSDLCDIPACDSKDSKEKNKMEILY
methodDescription: SPR, immobilised ROR1 monomer, antibody injected, 1:1 model
valueType: kon (M⁻¹ s⁻¹)
Numbers only here, please. The scale is M⁻¹ s⁻¹.

Input Antibody 601-13 (antibody, V domains shown) VH: EVQLVQSGAEVKKPGSSVKVSCKASGGTFSTFAINWVRQAPGQGLEWMGGVIPVSGTEDYSQKFQGRLSLTADESTGTAYMELSSLRSDDTAVYYCARDRSGRDWDYFDYWGQGTLVTVSS VL: DIVMTQSPSSLSASVGDRVTITCQASQDISNYLNWYQQKPGKAPKLLIYDASNLETGVPSRFSGSGSGTDFIFTISSLQPEDIATYYCQQFDNLPYTFGQGTKVEIKR . Output kon: 1.8e+06

Input Antibody 601-28 (antibody, V domains shown) VH: EVQLVQSGGDLVQPGGSLRLSCAASGFTFSSYSMNWVRQAPGKGLEWVSSISSSSSYIYYADSVKGRFTISRDNAKNSLYLQMNSLRAEDTAVYYCARGLGGWTHDAFDIWGQGTTVTVSS VL: QSALTQPASVSGSPGQSITISCTGTSSDVGGYNYVSWYQQHPGKAPKLMIFDVSNRPSGVSNRFSGSKSGNTASLTISGLQAEDEADYYCSSYTSSSTLFGGGTKLTVL . Output kon: 320000
